- Tested on: Mycobacterium tuberculosis strain H37Rv
- assay_name: Test 1: MIC determination against M. tuberculosis, resazurin fluorescence read-out
- Type: cell-based
- experimental_parameters: Test 1, strain H37Rv, repeated (3rd) test
value_kind: IC50 (µM)

> print(dat)
                                smiles.data  measurement
1  CCc1nc2ccc(Cl)cn2c1C(=O)NCc1ccc2nc(N3CC4(CC(c5ccc(OC(F)(F)F)cc5)C4)C3)ccc2c1        0.589
